tested on: THP-1; test: Antiproliferative activity against human THP-1 cells assessed as inhibition of cell growth incubated for 24 hrs by CellTiter-Glo luminescent cell viability assay; format: functional, cell-based; conditions: THP-1, 24 h
We label by threshold. Values of IC50 strictly beneath 500 nM are Condition met. Values of 500 nM and up are Condition not met.

Consider COc1cc2nc(NCCCN(C)C)nc(NC3CCN(Cc4ccc(-c5ccccc5)cc4)CC3)c2cc1OC . Does its IC50 lie strictly below 500 nM? Condition met

Record COc1cc2nc(NCCCN(C)C)nc(NC3CCN(C(=O)OC(C)(C)C)CC3)c2cc1OC : is its IC50 strictly below 500 nM? Condition not met

Is 500 nM strictly greater than the compound's reported IC50? compound: COc1cc2nc(NCCCN(C)C)nc(NC3CCN(Cc4ccc5ccccc5c4)CC3)c2cc1OC Condition met

A record lists COc1cc2c(NC3CCN(C(C)C)CC3)nc(C3CCCCC3)nc2cc1OCCCN1CCCC1 . Is its IC50 below 500 nM? Condition not met

Strictly below 500 nM: is that where IC50 of COc1cc2nc(NCCCN(C)C)nc(N(C)C3CCN(Cc4ccccc4)CC3)c2cc1OC sits? Condition not met

Consider COc1cc2c(NC3CCN(Cc4ccccc4)CC3)nc(NCCCN(C)C)nc2cc1OCc1ccccc1 . Does its IC50 lie strictly below 500 nM? Condition met

Determine whether this compound shows IC50 lower than 500 nM (ties excluded): C#CCN(C)CCCNc1nc(NC2CCN(Cc3ccccc3)CC2)c2cc(OC)c(OC)cc2n1 Condition met

Input COc1cc2nc(NCCCN(C)C)nc(NC3CCN(Cc4ccccc4)CC3)c2cc1OC ; condition: IC50 strictly below 500 nM. Does it hold? Condition not met

* * *

test: Cytotoxicity against human derived mesenchymal stem cells assessed as residual cell viability at […] measured after 72 hrs relative to control; format: toxicity, cell-based; conditions: dose 2.5 µM, read-out: Activity
result_type: viability at 72 h, […] (%)
Express the result in % but write the number alone.

Please give the measured viability at 72 h, […] for this compound: COc1cc2nc(NCCCN(C)C)nc(NC3CCN(Cc4ccccc4)CC3)c2cc1OC 85

* * *

system: MDA-MB-231; assay: Antiproliferative activity against human MDA-MB-231 cells assessed as inhibition of cell growth measured after 72 hrs by MTT assay; format: functional, cell-based; settings: MDA-MB-231, 72 h
Measured IC50 by item
Note: unit nM is implicit; provide only the numeric part.

Take a look at these entries with their results.
1. COc1cc2nc(NCCCN(C)C)nc(NC3CCN(CCCc4ccccc4)CC3)c2cc1OC
800
2. COc1cc2c(NC3CCN(Cc4ccccc4)CC3)nc(NCCCN(C)C)nc2cc1OCc1ccccc1
400
3. COc1cc2nc(NCCCN(C)C)nc(NC3CCN(Cc4ccc5ccccc5c4)CC3)c2cc1OC
210

// returns reported IC50 for input COc1cc2nc(NCCCN(C)C)nc(NC3CCN(Cc4ccccc4)CC3)c2cc1OC 1600

Query: IC50; subject: COc1cc2nc(NCCCN(C)C)nc(N(C)C3CCN(Cc4ccccc4)CC3)c2cc1OC 2380

// query IC50 value for entry COc1cc2nc(NCCCN(C)C)nc(NC3CCN(Cc4ccc(-c5ccccc5)cc4)CC3)c2cc1OC 290

Can you look up the measured IC50 of COc1cc2c(NC3CCN(C(C)C)CC3)nc(C3CCCCC3)nc2cc1OCCCN1CCCC1 for me? 3560

# lookup: IC50 of C#CCN(C)CCCNc1nc(NC2CCN(Cc3ccccc3)CC2)c2cc(OC)c(OC)cc2n1 3400

# credit: ChEMBL document CHEMBL5120862
